# MEASUREMENT TARGET: SARS-COV-2 RBD extracellular domain expressed with a C-terminal mouse IgG2a (SARS-COV-2 RBD-mFc) (SARS-CoV-2)
# PROTOCOL DESCRIPTION: SPR, captured mAb, RBD-mFc in solution, 37 C
Parameter: log10 of koff. Scope: all listed entries.
READOUT: log10 of koff (log10 of the value in s⁻¹)

* mAb11008 (antibody, V domains shown) VH: EVQLVESGGGLVQPGGSLRLSCAASGFTVSSNYMTWVRQAPGKGLEWVSVIYSGGSTFYADSVKGRFTISRHNSENTLYLQMNSLRAEDTAVYYCARDLAAAGTDYWGQGALVTVSS VL: DIQLTQSPSFLSASVGDRVTITCWASQGISSYLAWYQQKPGKAPKLLIYAASTLQSGVPSRFSGSGSGTEFTLTISSLQPDDFATYYCQHLNSYLYTFGQGTKLEIKR | -3.39
* mAb10998 (antibody, V domains shown) VH: EVQLVESGGGLVHPGGSLRLSCAASGLTVSSNYMSWVRQAPGKGLEWVSVIYSGGSTYYADSVKGRFTISRHNSKNTLFLQMNSLRAEDTAVYYCARDRPITGTTLDVWGQGTTVTVSS VL: DIQMTQSPSSLFASVGDRVTITCRASQSISSYLNWYQQKPGKAPKLLIYAASSLQSGVPSRFSGSGSGTDFTLTISSLQPEDFAFYYCQQTYSTPPITFGQGTRLEIKR | -1.71
* mAb10935 (antibody, V domains shown) VH: EVQLVESGGGLVQPGGSLRLSCAASGFTVSSNYMSWVRQAPGKGLEWVSLIYSGGSTYYADSVKGRFTISRHNSKNTLYLQMNSLRSEDTAVYYCARVPLGDYYYGMDVWGQGTTVTVSS VL: DIQMTQSPSSLSASVGDRVTITCQASQDINKYLNWYQQKPGKAPKLLIYDASNLETGVPSRFSGSGSGTDFTFTISSLQPEDIATYYCQQSDNLPLTFGGGTKVEIKR | -3.31
* mAb11004 (antibody, V domains shown) VH: QVQLVESGGGVVQPGRSLRLSCVASGFTFSIYGMDWVRQAPGKGLEWVAVISYDGSNKYYADSVKGRFTISRDNSKNTLYLQMNSLRPEDTAVYYCAKDREAAADAFDIWGQGTMVTVSS VL: DIQMTQSPSSVSASVGDRVTITCRASQGISSWLAWYQQKPGKAPKLLIYAASSLHSGVPSRFSGSGSGTDFTLTISSLQPEDFATYYCQQANSFRLTFGGGTKVEIKR | -3.93
* mAb10913 (antibody, V domains shown) VH: EVQLVESGGGLVQPGGSLRLSCAASGFTFRNYEMNWVRQAPGKGLEWVSYITSSGSTMYYADSVKGRFTISRDNAKNSLYLQMNSLRAEDTAVYYCARDGFYYYYAMDVWGQGTTVTVSS VL: QSVLTQPPSVSAAPGQKVTISCSGSSSNIGNNYVSWYQQLPGTAPKLLIYDNNKRPSGIPDRFSGSKSGTSATLGITGLQTGDEADYYCGTWDSSLSVGRVFGTGTKVTVLG | -2.76
